So I've got a bunch of molecules here, and I need their Activity values.
experimental-system: 5-hydroxytryptamine receptor 2B (Homo sapiens)
protocol-details: Agonist activity at recombinant human 5-HT2B at 10 uM by aequorin reporter based assay relative to agonist
Format: functional
One number for each entry, in %.

Solved entries (count: 3):
record-smiles | Activity [%]
CN(CCNC(=O)c1ccc(C#N)cc1)Cc1ccccc1 | -4
CN(CCCNC(=O)c1ccc(Cl)cc1)CCc1ccccc1 | 38
CCCc1ccc(C(=O)NCCCN(C)Cc2ccccc2)cc1 | -3

For each of the molecules below, note its Activity.
1. CN(CCCNC(=O)c1cccc(Br)c1)Cc1ccccc1
2. CN(CCNC(=O)c1ccc(Cl)cc1)Cc1ccccc1
3. CN(CCCNC(=O)c1ccc(Cl)cc1)Cc1ccccc1

A:
[-2, 0, 1]
